tested on: Plasmodium berghei; assay: Screen against P. berghei liver stage (PbLuc), transformed with Luciferase, at 10uM; type: functional, HepG2; settings: tested at 10 uM
The whole screen tested about 69,000 compounds, of which about 8,600 (12%) showed an effect of 50% or more. Only a selection was taken, and strong results are over-represented in it overall.
metric name: INHIBITION (%)
# unit: % | format: bare number

Examples from the recorded data:
Data point: `CC(C)OC[C@H]1CCC[C@]12CN(C(=O)C1CCOCC1)CCO2` ; INHIBITION = 27.6

Form field INHIBITION, entry `COCCN1CCN(c2ncnc3nc(C)cc(C)c23)CC1` : -14.1

Lab book: INHIBITION of `COc1ccc(C)cc1Nc1nc2c(C)nn(C)c2c(=O)n1C` noted as -2.13

According to the records, this compound `CCOC[C@@H]1CCC[C@@]12CN(Cc1cccnc1)CCO2` displays INHIBITION of 48.6

Entry COc1ccc(CNC(=O)NC(C)(C(=O)O)c2ccco2)cc1F (stereo not drawn) — recorded INHIBITION = 53.9

response.value for `O=C(c1cnc2n1CCN(Cc1ccccc1)C2)N1CCCC1` (field: INHIBITION) = 17.1

Recorded INHIBITION (compound CCc1ccc(C(N)c2cccc(S(C)(=O)=O)c2)cc1 (stereo not drawn) ): 48.1

The reported value for O=C1Nc2ccccc2CNC12CCN(CC1CCNC1)CC2 (stereo not drawn) in terms of INHIBITION is 29.2

More entries:
Briefly, INHIBITION measured for `COCCCNC(=O)c1c(C)noc1C(C)C` : -33.7

Form: compound = COCCCNC(=O)CN(C)C(C)c1nc(C(C)C)no1 (stereo not drawn) ; INHIBITION = 59.3

Data point: CN(C)C1COC2(CCN(Cc3ccncc3)CC2)C1 (stereo not drawn) ; INHIBITION = 29.9

// INHIBITION value for CC(C)Oc1cccc(CNC(=O)NC(C)(C(=O)O)c2ccco2)c1 (stereo not drawn) : 14.4

Form field INHIBITION, entry `COC[C@@H]1CCC[C@@]12CN(C(=O)C1CCOCC1)CCO2` : 33.1

Recorded result, `O=C(O)C1(n2ccnc2)CCN(Cc2cc3ccccc3o2)CC1` , INHIBITION: 30.9

GET /value?item= `CCNc1ccnc(N2CCN(Cc3ncccc3C)CC2)n1` &field=INHIBITION returns 51.3

Looking up `Cc1cccnc1CN1CCN(c2noc(-c3ccccc3)n2)CC1` , I found its INHIBITION recorded as -13.2

Noted for COCCCNC(=O)CN(C)C(C)c1nc(C)no1 (stereo not drawn) : its INHIBITION reads 14.6

For record `COCC(=O)N1CCO[C@]2(CCC[C@H]2COC)C1` the listed INHIBITION is 62.9

Documented INHIBITION of `COC[C@@H]1CCC[C@]12CN(S(=O)(=O)c1cccs1)CCO2` : 54.1

According to the records, this compound `Cc1cc(C)c2c(N3CCN(CCN4CCOCC4)CC3)ncnc2n1` displays INHIBITION of 40.3

Value of measured INHIBITION for the entry CN(Cc1ccncc1)C1COC2(CCN(Cc3ccccn3)CC2)C1 (stereo not drawn) : 52

compound CCC(C(=O)N1CCN(S(=O)(=O)N2CCCC2)CC1)n1cccn1 (stereo not drawn) , INHIBITION observed: 13

GET /value?item= `CCCOc1ccccc1NCC(=O)Nc1ccc(CC)cc1` &field=INHIBITION returns 15

compound `CC(C)C1=NOC2(CCN(C(=O)C3CCCC3)CC2)C1` , INHIBITION observed: 20.9

get_value(item= CC(NC(=O)NCc1ccccc1F)(C(=O)O)c1ccco1 (stereo not drawn) , readout=INHIBITION) returns 25.1

The compound CC(NC(=O)NCc1c(F)cccc1Cl)(C(=O)O)c1ccco1 (stereo not drawn) showed INHIBITION equal to 14.1

// recorded INHIBITION for COCC1CN(Cc2ccsc2)Cc2nn(C)cc21 (stereo not drawn) : 22.2

The value of INHIBITION measured for the compound `COC[C@@H]1CCC[C@@]12CN(C(=O)N(C)C)CCO2` turned out to be 28.5
